// reported Incidence of Parakeratosis (Average of 4 mice) for each item listed
System: parakeratosis caused by oleic acid
Experiment: Test on parakeratosis inhibitory action (oleic acid applied on the back of a hairless mouse)
Type: in vivo
Conditions: Application Test of 30% Oleic Acid Solution; sample 3% solution, 100 μL, 3 days; grades of 1 to 4; water reference 2.5
Procedure: An aqueous solution containing 3% each of GABA, glycine, D-glutamic acid and L-glutamic acid was prepared, and pH of each solution was adjusted to nutrality, if necessary. […] Thereafter, 100 μL of sample solution or reference solution was applied. […] The nucleus of the keratin layer was stained with hematoxylin, the number of nuclear cells was counted under a microscope, and the results were evaluated in four grades of 1 to 4.
measured.attribute: Incidence of Parakeratosis (Average of 4 mice)

compound: NCC(=O)O [Glycine, glycine]
quantitative.readout: 1.3
//
compound: N[C@H](CCC(=O)O)C(=O)O [D-Glutamic Acid, D-glutamic acid]
quantitative.readout: 2.0
//
compound: NCCCC(=O)O [GABA, γ-aminobutyric acid]
quantitative.readout: 1.5
//
compound: N[C@@H](CCC(=O)O)C(=O)O [L-Glutamic Acid, L-glutamic acid]
quantitative.readout: 3.0

----------
Tested on: parakeratosis caused by oleic acid
Assay: Test on parakeratosis inhibitory action (oleic acid applied on the back of a hairless mouse)
Assay type: in vivo
Settings: Application Test of 3% Oleic Acid Solution; sample 10 mM, 100 μL, 3 days; grades of 1 to 4; water reference 2.0
Method: An aqueous solution containing 3% each of GABA, glycine, D-glutamic acid and L-glutamic acid was prepared, and pH of each solution was adjusted to nutrality, if necessary. […] Thereafter, 100 μL of sample solution or reference solution was applied. […] The nucleus of the keratin layer was stained with hematoxylin, the number of nuclear cells was counted under a microscope, and the results were evaluated in four grades of 1 to 4.
// reported Incidence of Parakeratosis (Average of 4 mice) for each item listed
measured.attribute: Incidence of Parakeratosis (Average of 4 mice)

smiles.code: Cc1ccc(C(=O)Nc2ccc(S(=O)(=O)O)c3cc(S(=O)(=O)O)cc(S(=O)(=O)O)c23)cc1NC(=O)c1cccc(NC(=O)Nc2cccc(C(=O)Nc3cc(C(=O)Nc4ccc(S(=O)(=O)O)c5cc(S(=O)(=O)O)cc(S(=O)(=O)O)c45)ccc3C)c2)c1
measured.target: parakeratosis caused by oleic acid
result: 1.5
--
smiles.code: C[C@]12N[C@H](Cc3ccccc31)c1ccccc12
measured.target: parakeratosis caused by oleic acid
result: 1.0
--
smiles.code: Cc1nc(N=Nc2ccc(S(=O)(=O)O)cc2S(=O)(=O)O)c(COP(=O)(O)O)c(C=O)c1O
measured.target: parakeratosis caused by oleic acid
result: 1.8
--
smiles.code: NCCCC(=O)O
measured.target: parakeratosis caused by oleic acid
result: 1.5
--
smiles.code: NCc1cc(=O)[nH]o1
measured.target: parakeratosis caused by oleic acid
result: 1.3
--
smiles.code: O=C(O)C1=CCNCC1
measured.target: parakeratosis caused by oleic acid
result: 1.3
--
smiles.code: Nc1ncnc2c1ncn2[C@@H]1O[C@H](COP(=O)(O)OP(=O)(O)OP(=O)(O)O)[C@@H](O)[C@H]1O
measured.target: parakeratosis caused by oleic acid
result: 2.3
